The origin of these recorded values is ChEMBL document CHEMBL4765349.

# ASSAY REMARKS: Toxicity in Balb/c mouse assessed as survival rate at 300 mg/kg, ip measured after 15 days
# Format: organism-based
# EXPERIMENTAL CONTEXT: in vivo, time 15 day
REPORTED METRIC: survival at 360 h (%)
State just the number; it will be interpreted in %.

Value of measured survival at 360 h for the entry `COCC/C(=N\S(=O)(=O)Cc1ccc(Cl)cc1)Nc1ccc(Oc2ccnc3cc(OCCCN4CCOCC4)c(OC)cc23)c(F)c1` : 70

* * *

# Tested on: HT-29
# ASSAY REMARKS: cells
# EXPERIMENTAL CONTEXT: Homo sapiens, HT-29, 72 h
REPORTED METRIC: pIC50
# reply with the number alone; pIC50 is -log10 of concentration in mol/L

In plain terms, `COc1cc2nccc(Oc3ccc(N/C(Cc4cccnc4)=N\S(=O)(=O)Cc4ccccc4)cc3F)c2cc1OC` has a documented pIC50 of 4.69

So, `CCCCC/C(=N\S(=O)(=O)Cc1ccccc1)Nc1ccc(Oc2ncnc3ccsc23)c(F)c1` ? Its pIC50 was 4.73

Documented pIC50 of `COCC/C(=N\S(=O)(=O)Cc1ccccc1C)Nc1ccc(Oc2ccnc3cc(OC)c(OC)cc23)c(F)c1` : 5.31

Consider `COCC/C(=N\S(=O)(=O)Cc1ccc(C(F)(F)F)cc1)Nc1ccc(Oc2ccnc3cc(OC)c(OC)cc23)c(F)c1` . Its measured pIC50 is 4.88

Memo: `CCCCC/C(=N\S(=O)(=O)Cc1ccccc1)Nc1ccc(Oc2ccnc3ccsc23)c(F)c1` , reported pIC50: 5.02

// `COCC/C(=N\S(=O)(=O)Cc1ccc(Cl)c(Cl)c1)Nc1ccc(Oc2ccnc3cc(OCCCN4CCC(C)CC4)c(OC)cc23)c(F)c1` : pIC50 value = 6.06

Entry under test: `COCC/C(=N\S(=O)(=O)Cc1ccc(Cl)c(Cl)c1)Nc1ccc(Oc2ccnc3cc(OCCCN4CCOCC4)c(OC)cc23)c(F)c1` . Its pIC50 was 6.23

So for `COCC/C(=N\S(=O)(=O)Cc1ccc(Cl)c(Cl)c1)Nc1ccc(Oc2ccnc3cc(OCCCN4CCCCC4)c(OC)cc23)c(F)c1` , the logged pIC50 turned out to be 6.11

Record `COc1cc2nccc(Oc3ccc(N/C(Cc4ccsc4)=N\S(=O)(=O)Cc4ccccc4)cc3F)c2cc1OC` . Reported pIC50: 4.78

The measured pIC50 associated with `COc1cc2nccc(Oc3ccc(N/C(C)=N/S(=O)(=O)Cc4ccccc4)cc3F)c2cc1OC` reads 5.23

Short answer for `COc1cc2nccc(Oc3ccc(N/C(Cc4ccccc4)=N\S(=O)(=O)Cc4ccccc4)cc3F)c2cc1OC` : pIC50 was 4.49

The recorded pIC50 for `COCC/C(=N\S(=O)(=O)Cc1ccccc1F)Nc1ccc(Oc2ccnc3cc(OC)c(OC)cc23)c(F)c1` is 5.50

Noted for `COCC/C(=N\S(=O)(=O)Cc1ccc(Cl)cc1)Nc1ccc(Oc2ccnc3cc(OCCCN4CCN(C)CC4)c(OC)cc23)c(F)c1` : its pIC50 reads 6.44

pIC50 in this record for `COc1cc2nccc(Oc3ccc(N/C(CC4CCCCC4)=N\S(=O)(=O)Cc4ccc(F)cc4)cc3F)c2cc1OC` : 4.99

Reported pIC50 for `COCC/C(=N\S(=O)(=O)Cc1ccc(Cl)cc1)Nc1ccc(Oc2ccnc3cc(OCCCN4CCCCC4)c(OC)cc23)c(F)c1` was 6.39

For record `COCC/C(=N\S(=O)(=O)Cc1ccc(Br)cc1)Nc1ccc(Oc2ccnc3cc(OC)c(OC)cc23)c(F)c1` the listed pIC50 is 5.10

* * *

# TESTED SYSTEM: Hepatocyte growth factor receptor (Homo sapiens, UniProt P08581)
# Sequence (P08581 whole entry): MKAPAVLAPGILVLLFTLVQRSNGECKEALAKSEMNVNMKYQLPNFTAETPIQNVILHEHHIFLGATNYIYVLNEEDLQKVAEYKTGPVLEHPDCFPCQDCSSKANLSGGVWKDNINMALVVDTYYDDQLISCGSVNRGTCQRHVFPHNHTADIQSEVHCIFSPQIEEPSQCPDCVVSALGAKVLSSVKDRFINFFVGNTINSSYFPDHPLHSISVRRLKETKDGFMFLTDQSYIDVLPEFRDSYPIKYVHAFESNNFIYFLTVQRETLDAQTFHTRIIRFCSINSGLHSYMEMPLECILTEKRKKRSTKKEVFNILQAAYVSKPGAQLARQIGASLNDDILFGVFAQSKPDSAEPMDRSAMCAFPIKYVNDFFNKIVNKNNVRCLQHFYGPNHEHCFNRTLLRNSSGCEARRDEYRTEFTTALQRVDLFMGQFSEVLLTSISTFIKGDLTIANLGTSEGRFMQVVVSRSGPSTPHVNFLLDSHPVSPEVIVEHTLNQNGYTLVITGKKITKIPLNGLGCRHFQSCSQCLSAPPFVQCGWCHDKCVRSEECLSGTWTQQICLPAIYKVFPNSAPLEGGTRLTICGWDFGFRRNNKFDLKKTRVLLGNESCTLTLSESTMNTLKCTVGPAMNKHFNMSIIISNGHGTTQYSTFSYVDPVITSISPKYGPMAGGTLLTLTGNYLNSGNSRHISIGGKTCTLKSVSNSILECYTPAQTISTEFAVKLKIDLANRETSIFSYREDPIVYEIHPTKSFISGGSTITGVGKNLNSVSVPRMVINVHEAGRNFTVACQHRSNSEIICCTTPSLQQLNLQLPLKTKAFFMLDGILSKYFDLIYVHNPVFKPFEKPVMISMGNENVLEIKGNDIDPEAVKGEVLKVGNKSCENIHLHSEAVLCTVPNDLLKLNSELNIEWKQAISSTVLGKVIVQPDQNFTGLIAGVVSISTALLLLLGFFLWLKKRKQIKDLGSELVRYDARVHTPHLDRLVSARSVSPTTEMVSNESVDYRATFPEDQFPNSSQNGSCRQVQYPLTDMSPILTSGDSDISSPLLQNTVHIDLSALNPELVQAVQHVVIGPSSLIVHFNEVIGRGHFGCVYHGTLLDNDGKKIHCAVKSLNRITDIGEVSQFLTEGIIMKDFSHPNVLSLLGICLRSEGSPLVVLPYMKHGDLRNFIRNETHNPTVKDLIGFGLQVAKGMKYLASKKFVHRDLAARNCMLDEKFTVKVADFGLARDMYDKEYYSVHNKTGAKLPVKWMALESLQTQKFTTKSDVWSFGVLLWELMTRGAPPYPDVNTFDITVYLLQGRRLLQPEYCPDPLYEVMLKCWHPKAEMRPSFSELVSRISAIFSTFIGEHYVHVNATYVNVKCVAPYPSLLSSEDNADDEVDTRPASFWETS
REPORTED METRIC: IC50 (nM)
Enter your answer as a number in nM; do not include the unit.

In plain terms, `COCC/C(=N\S(=O)(=O)Cc1ccc(Cl)cc1)Nc1ccc(Oc2ccnc3cc(OCCCN4CCOCC4)c(OC)cc23)c(F)c1` has a documented IC50 of 2.89

* * *

# TESTED SYSTEM: Platelet-derived growth factor receptor beta (Homo sapiens)
# Sequence (P09619 whole entry): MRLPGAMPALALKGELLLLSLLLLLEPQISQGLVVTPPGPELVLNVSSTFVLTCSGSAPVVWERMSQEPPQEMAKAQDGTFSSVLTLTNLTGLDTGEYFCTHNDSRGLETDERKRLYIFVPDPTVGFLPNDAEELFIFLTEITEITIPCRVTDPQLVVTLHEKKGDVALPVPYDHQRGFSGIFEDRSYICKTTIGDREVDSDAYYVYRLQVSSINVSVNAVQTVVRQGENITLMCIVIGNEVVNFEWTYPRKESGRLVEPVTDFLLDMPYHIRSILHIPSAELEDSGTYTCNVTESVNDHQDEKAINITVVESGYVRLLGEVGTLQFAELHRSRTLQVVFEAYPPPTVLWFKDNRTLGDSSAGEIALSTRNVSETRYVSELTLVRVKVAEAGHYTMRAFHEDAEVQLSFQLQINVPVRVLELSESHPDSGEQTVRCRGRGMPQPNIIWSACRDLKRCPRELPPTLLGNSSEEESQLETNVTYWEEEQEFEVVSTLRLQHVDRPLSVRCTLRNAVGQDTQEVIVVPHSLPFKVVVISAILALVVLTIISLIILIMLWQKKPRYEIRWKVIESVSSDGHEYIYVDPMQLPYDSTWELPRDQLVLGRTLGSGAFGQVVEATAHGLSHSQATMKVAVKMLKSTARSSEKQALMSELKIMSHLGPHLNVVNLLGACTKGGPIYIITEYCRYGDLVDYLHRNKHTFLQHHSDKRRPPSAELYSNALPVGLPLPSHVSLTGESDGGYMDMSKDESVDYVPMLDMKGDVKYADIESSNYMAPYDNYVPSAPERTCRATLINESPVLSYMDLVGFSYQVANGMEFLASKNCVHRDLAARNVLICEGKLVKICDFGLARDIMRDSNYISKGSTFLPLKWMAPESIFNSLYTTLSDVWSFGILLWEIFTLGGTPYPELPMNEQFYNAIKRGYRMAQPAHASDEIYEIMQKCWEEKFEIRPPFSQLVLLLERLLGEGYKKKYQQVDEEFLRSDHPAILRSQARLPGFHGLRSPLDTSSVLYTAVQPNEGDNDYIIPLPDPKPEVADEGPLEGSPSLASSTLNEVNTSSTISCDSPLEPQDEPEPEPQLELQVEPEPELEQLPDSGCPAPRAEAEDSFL
REPORTED METRIC: IC50 (nM)
API: value field is a number in nM; no unit string.

IC50 reading for `COCC/C(=N\S(=O)(=O)Cc1ccc(Cl)cc1)Nc1ccc(Oc2ccnc3cc(OCCCN4CCOCC4)c(OC)cc23)c(F)c1` : 565

* * *

# ASSAY REMARKS: Clearance in Balb/c mouse at 8 mg/kg, po measured after 24 hrs by LC/MS/MS analysis
# Assay type: ADME, organism-based
# EXPERIMENTAL CONTEXT: in vivo
REPORTED METRIC: CL/F (mL/min/kg)
# unit: mL/min/kg | format: bare number

Lab note: `COCC/C(=N\S(=O)(=O)Cc1ccc(Cl)cc1)Nc1ccc(Oc2ccnc3cc(OCCCN4CCOCC4)c(OC)cc23)c(F)c1` gave CL/F of 19.7

* * *

# TESTED SYSTEM: Platelet-derived growth factor receptor alpha (Homo sapiens)
# Sequence (P16234 whole entry): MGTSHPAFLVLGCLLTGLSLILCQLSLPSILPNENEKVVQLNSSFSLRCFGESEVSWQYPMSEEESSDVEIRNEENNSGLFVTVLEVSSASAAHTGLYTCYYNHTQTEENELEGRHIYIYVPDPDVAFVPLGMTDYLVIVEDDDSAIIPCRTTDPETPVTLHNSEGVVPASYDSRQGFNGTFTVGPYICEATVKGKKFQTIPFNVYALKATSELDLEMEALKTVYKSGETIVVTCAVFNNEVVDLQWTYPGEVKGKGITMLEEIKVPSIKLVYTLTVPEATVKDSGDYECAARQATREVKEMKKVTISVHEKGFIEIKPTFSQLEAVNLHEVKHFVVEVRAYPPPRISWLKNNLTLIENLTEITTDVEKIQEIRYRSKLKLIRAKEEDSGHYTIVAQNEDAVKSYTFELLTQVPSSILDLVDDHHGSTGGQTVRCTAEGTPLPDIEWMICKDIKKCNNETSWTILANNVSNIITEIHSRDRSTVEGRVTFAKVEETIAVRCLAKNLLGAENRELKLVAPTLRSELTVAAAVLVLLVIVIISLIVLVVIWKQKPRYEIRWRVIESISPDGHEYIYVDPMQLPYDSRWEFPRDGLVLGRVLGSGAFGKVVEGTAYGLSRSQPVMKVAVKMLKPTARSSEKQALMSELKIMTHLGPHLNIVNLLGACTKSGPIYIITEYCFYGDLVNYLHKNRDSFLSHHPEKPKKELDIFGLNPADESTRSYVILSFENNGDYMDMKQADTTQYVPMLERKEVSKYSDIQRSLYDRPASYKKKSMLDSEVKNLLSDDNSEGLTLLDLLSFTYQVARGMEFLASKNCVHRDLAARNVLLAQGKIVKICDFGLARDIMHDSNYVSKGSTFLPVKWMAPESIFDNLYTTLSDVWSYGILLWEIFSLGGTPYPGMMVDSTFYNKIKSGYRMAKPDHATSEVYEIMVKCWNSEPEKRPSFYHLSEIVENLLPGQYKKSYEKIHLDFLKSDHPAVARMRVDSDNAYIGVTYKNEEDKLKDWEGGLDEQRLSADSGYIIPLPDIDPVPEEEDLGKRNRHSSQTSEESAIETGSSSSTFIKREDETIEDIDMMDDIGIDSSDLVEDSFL
REPORTED METRIC: IC50 (nM)
Just the number in nM, nothing appended.

Test item `COCC/C(=N\S(=O)(=O)Cc1ccc(Cl)cc1)Nc1ccc(Oc2ccnc3cc(OCCCN4CCOCC4)c(OC)cc23)c(F)c1` ; Platelet-derived growth factor receptor alpha (Homo sapiens); reported IC50 was 384

* * *

# Tested on: MDA-MB-231
# ASSAY REMARKS: Cytotoxicity against human MDA-MB-231 cells assessed as inhibition of cell proliferation measured after 72 hrs by MTT assay
# Type: functional, cell-based
# EXPERIMENTAL CONTEXT: MDA-MB-231, 72 h
REPORTED METRIC: pIC50
Note on units: pIC50 is unitless, being -log10 of a concentration expressed in mol/L.

Entry `COc1cc2nccc(Oc3ccc(N/C(CC4CCCCC4)=N\S(=O)(=O)Cc4ccc(F)cc4)cc3F)c2cc1OC` , tested on MDA-MB-231, has a reported pIC50 of 4.71

Item `COc1cc2nccc(Oc3ccc(N/C(C)=N/S(=O)(=O)Cc4ccccc4)cc3F)c2cc1OC` was tested on MDA-MB-231; the reported pIC50 is 5.03

// molecule `COCC/C(=N\S(=O)(=O)Cc1cccc(F)c1)Nc1ccc(Oc2ccnc3cc(OC)c(OC)cc23)c(F)c1` , assay MDA-MB-231, pIC50 value: 5.27

The recorded pIC50 with MDA-MB-231 for `COc1cc2nccc(Oc3ccc(N/C(Cc4cccnc4)=N\S(=O)(=O)Cc4ccccc4)cc3F)c2cc1OC` was 4.55

Given the molecule `CCCCC/C(=N\S(=O)(=O)Cc1ccccc1)Nc1ccc(Oc2ncnc3ccsc23)c(F)c1` and test system MDA-MB-231, the measured pIC50 is 4.59

The measured pIC50 that `COc1cc2nccc(Oc3ccc(N/C(Cc4ccsc4)=N\S(=O)(=O)Cc4ccc(F)cc4)cc3F)c2cc1OC` showed for MDA-MB-231 is 4.71

Record for `CCCCOc1cc2nccc(Oc3ccc(N/C(CCOC)=N/S(=O)(=O)Cc4ccc(Cl)cc4)cc3F)c2cc1OC` under target or system MDA-MB-231: pIC50 reported as 5.26

Param item: `CCCCC/C(=N\S(=O)(=O)Cc1ccc(F)cc1)Nc1ccc(Oc2ccnc3ccsc23)c(F)c1` ; param system: MDA-MB-231; output pIC50: 4.84

MDA-MB-231 data for `COc1cc2nccc(Oc3ccc(N/C(C)=N/S(=O)(=O)Cc4ccc(F)cc4)cc3F)c2cc1OC` ; its pIC50: 5.12

Reported pIC50 (MDA-MB-231) for entry `COCC/C(=N\S(=O)(=O)Cc1ccc(Cl)cc1)Nc1ccc(Oc2ccnc3cc(OCCCN4CCC(C)CC4)c(OC)cc23)c(F)c1` is 5.81

Value (pIC50, MDA-MB-231) for record `CCCCC/C(=N\S(=O)(=O)Cc1ccc(F)cc1)Nc1ccc(Oc2ccnc3cc(OC)c(OC)cc23)c(F)c1` = 5.04

// pIC50 (MDA-MB-231) for `COCC/C(=N\S(=O)(=O)Cc1ccc(F)cc1)Nc1ccc(Oc2ccnc3cc(OC)c(OC)cc23)c(F)c1` = 5.37

// molecule `COCC/C(=N\S(=O)(=O)Cc1ccccc1F)Nc1ccc(Oc2ccnc3cc(OC)c(OC)cc23)c(F)c1` , assay MDA-MB-231, pIC50 value: 5.25

# value of pIC50, MDA-MB-231, item `COc1cc2nccc(Oc3ccc(N/C(Cc4ccsc4)=N\S(=O)(=O)Cc4ccccc4)cc3F)c2cc1OC` = 4.62

With MDA-MB-231 as the test system, `COCC/C(=N\S(=O)(=O)Cc1ccccc1)Nc1ccc(Oc2ccnc3cc(OC)c(OC)cc23)c(F)c1` showed pIC50 of 5.18

So the reported pIC50 for `COc1cc2nccc(Oc3ccc(N/C(Cc4ccccc4)=N\S(=O)(=O)Cc4ccc(F)cc4)cc3F)c2cc1OC` , on MDA-MB-231, turned out to be 4.49

Tested on MDA-MB-231: `COCC/C(=N\S(=O)(=O)Cc1ccccc1C)Nc1ccc(Oc2ccnc3cc(OC)c(OC)cc23)c(F)c1` . Observed pIC50: 5.09
